# Tested on: SK-MEL-28 melanoma
# protocol.summary: NCI-60 one-dose screen, 48 h (100 = growth as untreated, 0 = no growth, -100 = all killed)
# condition.description: 10 µM unless noted
About 83,000 compounds went through this panel and 20% of them were active in at least one assay; those are over-represented in the sample as a whole.
Catalogue of growth readings, one per entry.
readout.name: growth (%)

INSERT INTO assay_data (compound, reading) VALUES
  ('CN(C)c1ccc(C(=O)OCCCCCCl)cc1', 103),
  ('Fc1cnccc1C1CC(c2ccc(N3CCNCC3)cc2)=NN1 (centres undefined)', 116),
  ('Cn1c(I)c(C#CCO[Si](C)(C)C(C)(C)C)c(=O)[nH]c1=O', 30.7),
  ('Nc1c(C(=O)Nc2ccccc2F)sc2nc3c(cc12)CCCC3', 73.7),
  ('N#Cc1c(-c2ccccc2)cc(-c2ccccc2)n(CCCC(=O)Nc2ccccc2N)c1=O', 65.9),
  ('COc1ccc(Nc2ncc(Br)c(NCCCNC(=O)c3cccs3)n2)cc1', 68.4),
  ('Cc1cc(=O)n(C(=O)Nc2ccccc2Cl)c2cc(O)ccc12', 107),
  ('N#Cc1nc(-c2ccc(F)cc2)oc1S(=O)(=O)N1CCCCC1', 102),
  ('CCc1ccc(CCCC(=O)O)cc1', 108),
  ('Cc1ccc(C2=Nc3c(N)ncnc3NC(c3cccc(Nc4ccnc5cc(C(F)(F)F)ccc45)c3)C2)cc1 (centres undefined)', 52.3),
  ('Cc1ccc2c(Cn3cc(CSc4nc5ccccc5o4)nn3)cc(=O)oc2c1', 110),
  ('Cc1cc(N2CCN(CCNc3ccnc4cc(Cl)ccc34)CC2)nc(N2CCOCC2)n1', 77.5),
  ('O=C(Nn1c2c(sc1=NC1CC1)C(=O)c1ccccc1C2=O)c1cc2ccc1CCc1ccc(cc1)CC2', 40.2),
  ('N#Cc1c(-c2ccc(Cl)cc2)nc(NN2C(=O)c3ccccc3C2=O)nc1N1CCOCC1', 117),
  ('Nc1nc2ccccc2c2c(=O)c3cccc(Cl)c3sc12', 108),
  ('COc1ccc(C/C(C)=C(\c2ccc(Cl)cc2)c2ccc(OCCN3CCCCC3)cc2)cc1', 101),
  ('COc1cc(C2c3cc(OC(C)=O)c(OC)cc3CC3C(=O)OCC32)ccc1OC(C)=O (centres undefined)', 122),
  ('CS(=O)(=O)Nc1cc(-c2ccc3ncnc(Nc4ccc5c(cnn5Cc5ccc(F)cc5)c4)c3c2)cnc1Cl', 16.7),
  ('O=C(Cn1cc(CSc2nc3ccccc3o2)nn1)Nc1ccc(F)cc1F', 114),
  ('Oc1c(Br)cc(Br)c2ccc(Cn3cc(-c4ccccc4C(F)(F)F)nn3)nc12', 96.9),
  ('CCCCNC(=O)Oc1ccc(/C(=C(/C)Cc2ccc(OC)cc2)c2ccc(OCCN3CCCC3)cc2)cc1', -0.368),
  ('CC1CN(S(=O)(=O)c2oc(-c3ccc(Cl)cc3)nc2C#N)CC(C)O1 (centres undefined)', 97.9),
  ('COc1cc(/C=C/C(=O)c2ccc(F)cc2)ccc1OCCCCOc1ccc(/C=C/C(=O)c2c(C)nc3ccccc3c2C)cc1OC', 122),
  ('COc1cc2ncnc(Nc3ccc(S(=O)(=O)Nc4cc(C)on4)cc3)c2cc1OCCCN1CCN(c2ccc(F)cc2)CC1', 107),
  ('O=C(CN1CCOCC1)Nc1nc(-c2cc3ccccc3oc2=O)cs1', 104),
  ('C#CCOc1cccc(Nc2ncnc3ccc(NC(=O)C=C)cc23)c1', 77.8),
  ('CC(C)=CCC[C@](C)(O)[C@H]1CC[C@]2(C)[C@@H]1CC[C@@H]1[C@@]3(C)C/C(=C/c4ccco4)C(=O)C(C)(C)[C@@H]3CC[C@]12C', 102),
  ('N#CC1=C(c2ccccc2)Nc2c(c(-c3ccc(Cl)cc3)nn2-c2ccccc2)C12C(=O)Nc1ccc(Cl)cc12 (centres undefined)', 90.8),
  ('CN(C)Cc1ccc(O)c(C(=O)O)c1', 119);

# credit: PubChem BioAssay (NCI)
